test description: Quantitative High-Throughput drug screen in 47 multiple myeloma cell lines against the NCATS MIPE library collection: Karpas25_ECACC cell viability assay (AID 1918968; further: nearly all actives have a fitted effect of over 35% in size)
condition label: Karpas25 myeloma viability, CellTiter-Glo ATP, 48 h; series mostly up to 45.8 µM
Results filed as inconclusive are left out. The source made the active and inactive calls. The call rests on the fitted dose curve; in most records, active means well fitted cell-killing curve with a large enough effect; inconclusive means small, poorly fitted or top-dose-only effect, or effect the other way; inactive means no such curve, though single readings can be large or run the other way.
Outcomes: true for active, false for inactive

• COc1ccc(-c2cc3nccn3c(Nc3ncccc3C(N)=O)n2)cc1OC = true
• C[C@@]1(C(=O)Nc2ccc(F)nc2)CCCN1c1nc(Nc2cc(C3CC3)[nH]n2)c2cccn2n1 = true
• CN1C(=O)C(Cc2c[nH]c3ccccc23)NC1=S (configuration not stated) = true
• CNC(=O)c1c(-c2ccc(F)cc2)oc2cc(N(CCO)S(C)(=O)=O)c(C3CC3)cc12 = true
• CCC[C@H](N[C@@H](C)C(=O)N1[C@@H]2CCCC[C@H]2C[C@H]1C(=O)O)C(=O)OCC = false
• Cc1cc(CS(=O)(=O)c2ccccc2)cc(OCc2ccc(CN3CCC[C@H]3CO)cc2)c1 = true
• Cc1ccccc1C(C(=O)NC1CCCCC1)N(C(=O)CNc1ccc(C#N)cc1)c1cccc(F)c1 (configuration not stated) = false
• CN1CCC(COc2cnc(-c3cccc(Cn4nc(-c5cccc(C#N)c5)ccc4=O)c3)nc2)CC1 = true
• N[C@@H](CC(=O)N1CCn2c(nnc2C(F)(F)F)C1)Cc1cc(F)c(F)cc1F = false
• O=C(O)CCNc1cc(N2CCc3ccccc3CC2)nc(-c2ccccn2)n1 = true
• CNC(=O)[C@H](CC1=CN=C2C=CCC=C12)NC(=O)[C@@H](CC(=O)NO)CC(C)C = true
• CCN(CCO)CCCOc1ccc2c(Nc3cc(CC(=O)Nc4cccc(F)c4)[nH]n3)ncnc2c1 = false

###

test description: qHTS of pediatric cancer cell lines to identify multiple opportunities for drug repurposing: Confirmatory screen for SK-N-SH cells (AID 1347129);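 further: cells exposed to compound for 48 h before viability read; nearly all actives have a fitted effect of over 60% in size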
condition label: SK-N-SH neuroblastoma cell viability; series mostly up to 46.1 µM
Records with an inconclusive call do not appear. Active and inactive are the calls of the source. The call rests on the fitted dose curve; in most records, active means well fitted cell-killing curve with a large enough effect; inconclusive means small, poorly fitted or top-dose-only effect; inactive means flat fitted curve, though single readings scatter.
Outcome codes: active, inactive

* Cc1ccc(C(=O)N(CCCN)[C@@H](c2nc3cc(Cl)ccc3c(=O)n2Cc2ccccc2)C(C)C)cc1 | active
* Cc1c(C(=O)Nc2ccc(N3C[C@@H](C)O[C@@H](C)C3)nc2)cccc1-c1ccc(OC(F)(F)F)cc1 | inactive
* Nc1ccc(-c2ccc3ncc4ccc(=O)n(-c5cccc(C(F)(F)F)c5)c4c3c2)cn1 | active
* CC1CNc2c(cccc2S(=O)(=O)N[C@@H](CCCN=C(N)N)C(=O)N2CC[C@@H](C)C[C@@H]2C(=O)O)C1 (some centres not stated) | inactive
* Nc1ncnc2c1ncn2[C@@H]1O[C@H](CO)[C@@H](O)[C@@H]1O | inactive
* C[C@@H]1[C@H](O)[C@@H](C)C=CC=CC=CC=CC=CC=CC=C[C@H](O[C@@H]2O[C@H](C)[C@H](O)[C@H](N)[C@@H]2O)C[C@@H]2O[C@](O)(C[C@@H](O)C[C@@H](O)[C@H](O)CC[C@@H](O)C[C@@H](O)CC(=O)O[C@H]1C)C[C@H](O)[C@@H]2C(=O)O | inactive
* C[C@@H]1O[C@@H](O[C@H]2CC[C@@]3(C)[C@H](CC[C@@H]4[C@H]3C[C@@H](O)[C@]3(C)[C@@H](C5=CC(=O)OC5)CC[C@]43O)C2)C[C@H](O)[C@@H]1O[C@H]1C[C@H](O)[C@H](O[C@H]2C[C@H](O)[C@@H](O)[C@@H](C)O2)[C@H](C)O1 (stereo in doubt) | active

###

In this section, each of the compounds is paired with its reported viability (% of control).
test description: High-throughput drug toxicity screening in the BPDCN cell line Cal-1 (AID 1224825);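 further: cells exposed to compounds for 48 h; 100% = DMSO and 0% = bortezomib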
condition label: Cal-1 BPDCN cell viability, qHTS; at 45.8 µM (top of the series) unless noted
readout type: viability (% of control) (%)

- C#CCN(C)CC1=Cc2ccccc2Oc2ccccc21: 98
- Cc1cnc(-c2cc(N3CCN(C(=O)CCS(C)(=O)=O)CC3)ncc2Cl)c(C)c1: 64.7
- C[C@]12CCC3=C4CCC(=O)C=C4CC[C@@H]3[C@H]1CC[C@@]2(O)CC#N: 107
- NCc1c[nH]c(=S)n1[C@H]1CCc2c(F)cc(F)cc2C1: 34.2
- CCCCN(CCCC)CC(O)c1cc(Cl)cc2c1-c1ccc(Cl)cc1C2=Cc1ccc(Cl)cc1 (stereo not drawn): 63
- O=c1[nH]nc(OCCCc2ccc(Cl)cc2)c(NCc2cccnc2)c1Br: 8.48
- CN1C(=O)C(Cc2c[nH]c3ccccc23)NC1=S (stereo not drawn): 106

###

test description: High-throughput drug toxicity screening in the BPDCN cell line Gen2.2 (AID 1224824);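 further: cells exposed to compounds for 48 h before reading; 100% = DMSO and 0% = bortezomib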
condition label: Gen2.2 BPDCN cells; at 45.8 µM (top of the series) unless noted
Listed compounds paired with reported cell viability, % of control (lower = more cytotoxic)
readout type: cell viability, % of control (lower = more cytotoxic) (%)

• CC(C)(O)CC(=O)NCCn1ccc2ncnc(Nc3ccc(Oc4cccc(C(F)(F)F)c4)c(Cl)c3)c21 = 75.3
• COc1cc2nccc(Oc3ccc(NC(=O)Nc4cc(C)on4)c(Cl)c3)c2cc1OC = 52.1
• COc1cc([C@@H]2c3cc4c(cc3[C@@H](O[C@@H]3O[C@@H]5CO[C@@H](C)O[C@@H]5[C@H](O)[C@@H]3O)[C@H]3COC(=O)[C@H]23)OCO4)cc(OC)c1O = 57.1
• CNC(=O)c1cc(COc2nnc(Nc3ccc(Cl)cc3)c3ccoc23)ccn1 = 159
• Cc1ccc(NC(=O)c2cccc(N(C)C)c2)cc1NC(=O)c1ccc(O)cc1 = 81.9
• CN1CCC[C@H]1CCO[C@](C)(c1ccccc1)c1ccc(Cl)cc1 = 77.3
• CCC(=C(CC)c1ccc(O)cc1)c1ccc(O)cc1 = 111
• C=C[C@@H]1CN2CCC1C[C@@H]2C(O)c1ccnc2ccc(OC)cc12 (stereo partly drawn) = 130
• O=C(O)CCC=CCC[C@@H]1[C@H](N2CCCCC2)[C@@H](O)C[C@@H]1OCc1ccc(-c2ccccc2)cc1 = 169
• Cc1cc(CS(=O)(=O)c2ccccc2)cc(OCc2ccc(CN3CCC[C@H]3CO)cc2)c1 = 318
• O=C(c1ccc(C=Cc2n[nH]c3ccccc23)cc1)N1CCNCC1 = 57.2
• Cc1cccc(Nc2nc(N[C@@H]3CCCC[C@H]3N)ncc2C(N)=O)c1 = 2.09
• CCOC(=O)c1c(CSc2ccccc2)n(C)c2cc(Br)c(O)c(CN(C)C)c12 = 164

###

test description: qHTS assay for measurement of the activity of small molecule inhibitors on Zika virus induced Caspase-3 activity in human iPSC derived neural progenitor cells (hNPCs) (AID 1224857); further: nearly all actives have a fitted effect of over 65% in size
condition label: hNPCs ZIKV-induced caspase-3/7, Caspase-Glo luminescence, 6 h; series mostly up to 45.7 µM
Records with an inconclusive call do not appear. The source made the active and inactive calls. The call rests on the fitted dose curve; in most records, active means well fitted inhibition curve with a large enough effect; inconclusive means small, poorly fitted or top-dose-only effect; inactive means no such curve, though single readings can be large or run the other way.
Outcome codes: 1.0 = active, 0.0 = inactive

- O=c1cc(-c2ccc(O)c(O)c2)oc2cc(O)cc(O)c12: 0.0
- O=C(NCCCCN1CCOCC1)c1cc2ccccc2o1: 0.0
- CCN1CCN(c2ccc(Nc3cc(N(C)C(=O)Nc4c(Cl)c(OC)cc(OC)c4Cl)ncn3)cc2)CC1: 0.0
- Nc1[nH]nc2nnc(-c3c(-c4ccccc4)nn4ccccc34)cc12: 0.0
- Cc1cc(NC(=O)Nc2ccc(N(C)C)cc2)c2cc(F)cc(F)c2n1: 0.0
- Cc1ccc2c(=O)c3cccc(CC(=O)O)c3oc2c1C: 0.0
- CC(C)C[C@@H](N)[C@H](O)C(=O)N[C@H](C(=O)N[C@H](C(=O)N[C@@H](CC(=O)O)C(=O)O)C(C)C)C(C)C: 0.0
- CN1CCC[C@H]1CCO[C@](C)(c1ccccc1)c1ccc(Cl)cc1: 0.0
- C[C@@H](N)c1ccc(C(=O)Nc2ccnc3[nH]ccc23)cc1: 1.0
- CN1N=C(N)c2cn([C@@H]3O[C@H](COP(=O)(O)O)[C@@H](O)[C@@H]3O)c3ncnc1c23: 0.0
- CC(C)=CCCC(C)=CCCC(C)=CCCC(C)=CCCC(C)=CCCC(C)=CCCC(C)=CCCC(C)=CCCC(C)=CCO: 0.0
- O=C1C(c2c(O)[nH]c3ccccc23)=Nc2ccccc21: 0.0
- COc1cc(CNC(=O)CCCCC=CC(C)C)ccc1O: 0.0
- Cc1cnc(Nc2cccc(CN3CCOCC3)c2)nc1Nc1cccc(S(=O)(=O)NC(C)(C)C)c1: 0.0
- CN1CCN(c2ncc(-c3cc(Cl)cc(Cl)c3Cl)c(N)n2)CC1: 0.0
- CN1C(=O)C[C@H](C(=O)N[C@@H](Cc2cnc[nH]2)C(=O)N2CCC[C@@H]2C(N)=O)NC1=O: 0.0
